# target: T1, recombinant human galectin-10, TEV-cleaved (human, UniProt Q05315 1-142)
# T1 sequence: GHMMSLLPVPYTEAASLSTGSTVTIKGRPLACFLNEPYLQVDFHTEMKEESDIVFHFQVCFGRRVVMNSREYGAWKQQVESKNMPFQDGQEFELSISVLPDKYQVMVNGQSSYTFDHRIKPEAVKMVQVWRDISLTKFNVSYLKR
# protocol_notes: cell-based or functional assay
Parameter: 50% crystal dissolution (min), 50 uM. Scope: all listed entries.
endpoint_name: 50% crystal dissolution (min), 50 uM

>>> reported_measurement("11F12 Fab (Fab, V domains shown, Fab with human CH1 (including part of the hinge region) and human lambda constant domain; also called 11F12 hFab) VH: QVQLQESGGGLVQPGGSLRLSCAASGFTFSTNYMNWVRQAPGKGLEWVSGITSGGGRTYYADSVKGRFTISRDNAKNTLYLQMNSLKPEDTALYYCARTDHAWLDAWGQGTLVTVSS VL: HSAVTQPPSVSGTLGKTVTISCAGTSSDVGYGNYVSWYQHLPGTAPKLLIYAVSTRASGVPDRFSGSKSGNTASLTISGLQSEDEGDYYCASYSVRNNVVFGGGTRLTVL")
"62 min"
>>> reported_measurement("10B02 Fab (Fab, V domains shown, Fab with human CH1 (including part of the hinge region) and human lambda constant domain; also called 10B02 hFab) VH: QVQLVESGGGLVQPGGSLRVSCAASGFTFSYHYMNWVRQAPGKGLEWVSGISAGGGRTYYADSVKGRFTISRDNAKNTLYLQMNSLNAEDTALYYCARVHGITNDYWGQGTQVTVSS VL: QSALTQPPSVSGSPGKTVTISCAGTSSDVGYGNYVSWYQQLPGMAPKLLIYEVNKRASGITDRFSGSKSGNTAFLTISGLQSEDEADYYCASYRNSNNWVFGGGTHLTVL")
"102 min"
>>> reported_measurement("10A06 Fab (Fab, V domains shown, Fab with human CH1 (including part of the hinge region) and human lambda constant domain; also called 10A06 hFab) VH: QVQLVESGGGLVQPGGSLRLSCAASGFTFGNYDMSWVRQAPGKGPEWVSDINSGGGSTYYADSVKGRFTISRDNAKNSLLLQMNSLKPEDTAVYYCATGYTGYYYWGQGTQVTVSS VL: QTVVTQEPSLSVSPGGTVTLTCGLSSGSVTSSNYPAWYQQTPGQAPRALIYSINSRHSGVPDRFSGSISGNKAALTITGAQAEDEADYYCTLYMGTGSNNVVFGGGTHLTVL")
"49.1 min"
>>> reported_measurement("10D02 Fab (Fab, V domains shown, Fab with human CH1 (including part of the hinge region) and human lambda constant domain; also called 10D2; 10D02 hFab) VH: EVQLVESGGGLVQPGGSLRVSCAASGFTFSSYYMSWVRQAPGKGLEWVSGIVTGGGRTHYTDSVKGRFTITRDNAKNTLYLQMNSLRPEDTALYYCARVNGVVTNYDYWGQGTQVTVSS VL: QAVLTQPPSVSGSPGKTVTISCAGTSSDVGYGNYVSWYQQLPGMAPKLLIYDVNKRASGITDRFSGSKSGNTASLTISGLQSEDEADYFCASYRSPNNVVFGQGTHLTVL")
"59.7 min"

Origin of measurements: patent US20190367619A1
